Could you please report measured clearance for the items listed next?
experiment: in vivo
condition-summary: Sprague-Dawley, rat, iv, 3 umol/kg
Write your answer as a measured quantity: the number, then the unit.

Ask: For the molecule O=C(NCc1ccc(F)c(C(F)(F)F)c1)C1c2ccccc2C(=O)N1CCc1ncc(F)cn1 (centres undefined) , report clearance.
Result: 32 mL/min/kg

Ask: For the molecule O=C(NCc1cccc(OC(F)(F)F)c1)C1c2ccccc2C(=O)N1CCc1ncc(F)cn1 (centres undefined) , report clearance.
Result: 29 mL/min/kg

Ask: For the molecule O=C(NCc1ccc(OC(F)(F)F)cc1)C1c2ccccc2C(=O)N1CCc1ncc(F)cn1 (centres undefined) , report clearance.
Result: 37 mL/min/kg

Ask: For the molecule O=C(NCc1ccc(OC(F)(F)F)cc1)C1c2ccccc2C(=O)N1C1CCOCC1 (single isomer, unassigned; enantiomer 2) , report clearance.
Result: 30 mL/min/kg

====

experiment: in vivo
condition-summary: Sprague-Dawley, rat, brain/plasma
property: Kp
Answer with a bare number; do not write a unit.

Ask: For the compound O=C(NCc1ccc(OC(F)(F)F)cc1)C1c2ccccc2C(=O)N1CCc1ccccn1 (stereo in doubt; 16A) , report Kp.
Result: 2

Ask: For the compound O=C(NCc1ccc(OC(F)(F)F)cc1)C1c2ccccc2C(=O)N1C1CCOCC1 (single isomer, unassigned; enantiomer 2) , report Kp.
Result: 1

====

experiment: in vitro
condition-summary: human, microsomes, CLH
property: microsomal CLint (µL/min/mg)
Entry rule: numbers only, all in µL/min/mg.

Ask: For the molecule O=C(NCc1ccc(OC(F)F)nc1)C1c2ccccc2C(=O)N1CCc1ccccn1 (stereo not given) , report microsomal CLint.
Result: 33

Ask: For the molecule CC(C)(Cc1ccccn1)N1C(=O)c2ccccc2C1C(=O)NCc1ccc(OC(F)(F)F)cc1 (stereo not given) , report microsomal CLint.
Result: 340

Ask: For the molecule O=C(NCc1cccc(OC(F)(F)F)c1)C1c2ccccc2C(=O)N1CCc1ncc(F)cn1 (stereo not given) , report microsomal CLint.
Result: 180

Ask: For the molecule O=C(NCc1cccc(OC(F)(F)F)c1)C1c2ccccc2C(=O)N1CCc1ccccn1 (stereo not given) , report microsomal CLint.
Result: 370

Ask: For the molecule O=C(NCc1ccc(OC(F)(F)F)cc1)C1c2cccc(O)c2C(=O)N1CCc1ccccn1 (stereo not given) , report microsomal CLint.
Result: 59

Ask: For the molecule CC(C)(C)OC(=O)N1CC(N2C(=O)c3ccccc3C2C(=O)NCc2ccc(OC(F)(F)F)cc2)C1 (stereo not given) , report microsomal CLint.
Result: 43

Ask: For the molecule O=C(NCc1ccc(OC(F)(F)F)cc1)C1c2cccc(F)c2C(=O)N1CCc1ccccn1 (stereo not given) , report microsomal CLint.
Result: 170

Ask: For the molecule O=C(NCc1ccc(OC(F)(F)F)cc1)C1c2ccccc2C(=O)N1CCOCC(F)(F)F (stereo not given) , report microsomal CLint.
Result: 44

Ask: For the molecule CC(C)(CN1C(=O)c2ccccc2C1C(=O)NCc1ccc(OC(F)(F)F)cc1)c1ccccn1 (stereo not given) , report microsomal CLint.
Result: 40

Ask: For the molecule O=C(NCc1ccc(OC(F)(F)F)cc1)C1c2ccccc2C(=O)N1CC1CC(F)(F)C1 (stereo not given) , report microsomal CLint.
Result: 25

Ask: For the molecule O=C(NCc1ccc(OC(F)(F)F)cc1)C1c2ccccc2C(=O)N1C1CC(F)(F)C1 (stereo not given) , report microsomal CLint.
Result: 15
